# Assay protocol: Phase 1 single ascending dose (SAD) clinical trial with cross-over comparison of CTP-656 and Kalydeco: pharmacokinetics, safety, tolerability
# Format: in vivo, human
# Details: both sexes, human, plasma, oral; 150 mg dose, n = 9
Here the recorded terminal half-life (t1/2) is given for each entry.
Observed property: terminal half-life (t1/2) (h)

* [2H]C([2H])([2H])C(c1cc(C(C)(C)C)c(NC(=O)c2c[nH]c3ccccc3c2=O)cc1O)(C([2H])([2H])[2H])C([2H])([2H])[2H] | 15
* CC(C)(C)c1cc(C(C)(C)C)c(NC(=O)c2c[nH]c3ccccc3c2=O)cc1O [ivacaftor, reference compound] | 11.2
